All figures here come from patent US20230019491A1.

compounds and their reported IC50
molecular target: IKKε (Homo sapiens); assay: IKKε biochemical assay; conditions: 10 point 1:4 dose response, 30 uM top concentration, 90 min at 25° C., LabChip EZ Reader II; read-out: IKKε_IC50
Sequence (Q14164 whole entry, species assumed): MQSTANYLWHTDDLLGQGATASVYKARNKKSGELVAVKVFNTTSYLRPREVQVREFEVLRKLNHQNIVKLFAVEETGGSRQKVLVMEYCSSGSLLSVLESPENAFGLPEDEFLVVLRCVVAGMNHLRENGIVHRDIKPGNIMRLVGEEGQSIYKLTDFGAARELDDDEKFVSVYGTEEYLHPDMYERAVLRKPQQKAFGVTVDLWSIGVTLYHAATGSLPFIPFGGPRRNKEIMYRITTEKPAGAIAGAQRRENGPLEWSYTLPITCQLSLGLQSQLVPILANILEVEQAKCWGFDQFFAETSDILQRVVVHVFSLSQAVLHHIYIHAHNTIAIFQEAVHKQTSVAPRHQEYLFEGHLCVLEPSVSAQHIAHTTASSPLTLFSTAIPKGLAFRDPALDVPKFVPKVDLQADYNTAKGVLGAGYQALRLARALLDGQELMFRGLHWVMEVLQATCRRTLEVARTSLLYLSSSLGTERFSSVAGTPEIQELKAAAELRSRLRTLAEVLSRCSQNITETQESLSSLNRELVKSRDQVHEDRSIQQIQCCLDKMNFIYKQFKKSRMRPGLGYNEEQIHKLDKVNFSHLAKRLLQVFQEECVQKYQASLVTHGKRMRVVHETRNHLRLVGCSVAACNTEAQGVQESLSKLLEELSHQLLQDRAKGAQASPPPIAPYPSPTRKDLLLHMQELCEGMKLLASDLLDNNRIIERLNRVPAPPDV

**Q:** Param readout = IC50; param system = IKKε (Homo sapiens); param query = C[C@H](O)C(=O)N1CC(COc2ccc(-c3ccnc(Nc4ccc(N5CCN(C6COC6)CC5)cc4)n3)cc2C#N)C1 ; response: value
**A:** < 100 nM

**Q:** Param readout = IC50; param system = IKKε (Homo sapiens); param query = COc1nc(Nc2nccc(-c3ccc(OC4CCOCC4)c(C#N)c3)n2)ccc1C(=O)N1C2CCCC1COC2 ; response: value
**A:** < 100 nM

**Q:** Param readout = IC50; param system = IKKε (Homo sapiens); param query = COc1nc(Nc2nccc(-c3ccc(OC4CCOCC4)c(C#N)c3)n2)ccc1C(=O)N1CC2CCC1CN2C (stereo not shown) ; response: value
**A:** < 100 nM

**Q:** Param readout = IC50; param system = IKKε (Homo sapiens); param query = COc1nc(Nc2nccc(-c3ccc(O[C@@H]4CCN(C(=O)[C@H](C)O)C[C@H]4F)c(C#N)c3)n2)ccc1N1CCN(C2COC2)CC1 ; response: value
**A:** < 100 nM

**Q:** Param readout = IC50; param system = IKKε (Homo sapiens); param query = COc1nc(Nc2nccc(-c3ccc(O[C@@H]4CCN(C(=O)[C@@H](C)O)C[C@H]4F)c(C#N)c3)n2)ccc1C1CCN(C2COC2)CC1 ; response: value
**A:** 100 to 1000 nM

**Q:** Param readout = IC50; param system = IKKε (Homo sapiens); param query = COc1nc(Nc2nccc(-c3ccc(O[C@@H]4CCN(C(=O)[C@H](C)O)C[C@H]4F)c(C#N)c3)n2)ccc1C1CCN(C2COC2)CC1 ; response: value
**A:** < 100 nM

For the next question, use this compound.
**Q:** Param readout = IC50; param system = IKKε (Homo sapiens); param query = COc1nc(Nc2nccc(-c3ccc(OC4CCN(C(=O)[C@H](C)O)CC4(F)F)c(C#N)c3)n2)ccc1N1CCN(C2COC2)C[C@@H]1C (stereo partly shown) ; response: value
**A:** < 100 nM
